experiment: probe aInhba binding on compound microarray – biochemical, small-molecule microarray, 635/667 nm fluorescence, primary screen (AID 1148); settings: higher = more signal;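 further: score merges 667nm spot fluorescence with signal-to-noise for antibody binding to printed compounds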
Could you label it Met if measured composite z-score is 0.06 or higher, and Not met otherwise?

Study these solved cases before continuing.
CCCNC(=O)[C@@H]1c2ccccc2C(=O)N(CC23CC4CC(CC(C4)C2)C3)[C@H]1c1ccc(CO)cc1 : Not met
NC(=O)[C@H]1[C@@H]2C(=O)O[C@@H](c3ccccc3)[C@@H](c3ccccc3)N2[C@@H](c2ccc(O)cc2)[C@]12C(=O)Nc1ccc(C#CC3(O)CCCCCC3)cc12 : Not met
[N-]=[N+]=NCc1ccccc1[C@H]1OC(c2ccc(OCCCO)cc2)=N[C@@]1(Cc1ccccc1N=[N+]=[N-])C(=O)NCCN1CCOCC1 : Met
Cc1cc(C)c(C(O)C2C=CC3C(=O)N(c4ccccc4)C(=O)C3N2Nc2ccccc2)c(C)c1 (centres undefined) : Met
C[N+](C)(C)CCCCCCNC(=O)[C@@H]1C[C@@H]2C(=O)NCC(=O)N2[C@@H]1c1ccc(O)cc1 : Not met
COC(=O)[C@@]1(Cc2ccccc2)[C@H]2c3cc(C(=O)N4CCCC4)n(Cc4ccccc4)c3C[C@H]2CN1C(=O)c1ccccc1 : Met
O=C1N(CCS(=O)(=O)c2ccccc2)Cc2ccccc2C[C@@]12COC(c1ccc(OCCCO)cc1)=N2 : Met
C[N+](C)(C)CCCC[C@@H]1NC(=O)[C@@H]2C[C@H](C(=O)NCCCCCNC(=O)CS)[C@H](c3cccc(OCCO)c3)N2C1=O : Met

Ask | Could you tell me if the measured composite z-score of C=CCOC(=O)[C@@H]1[C@H]2C(=O)O[C@H](c3ccccc3)[C@H](c3ccccc3)N2[C@H](c2ccc(OCCOC(=O)[C@H]3C[C@H]4C(=O)N[C@@H](Cc5ccccc5)C(=O)N4[C@H]3c3cccc(OCCO)c3)cc2)[C@@]12C(=O)Nc1ccc(I)cc12 reaches 0.06 or more?
Reply | Met

Ask | Continue with C=CCNC(=O)[C@@H]1[C@H]2C(=O)O[C@H](c3ccccc3)[C@H](c3ccccc3)N2[C@H](c2ccc(O)cc2)[C@@]12C(=O)Nc1ccc(C#CCCO)cc12
Reply | Not met

Ask | Continue with COc1ccc(CCNC(=O)[C@@H]2c3ccccc3C(=O)N(Cc3ccccc3C(F)(F)F)[C@H]2c2ccc(CO)cc2)cc1
Reply | Not met

Ask | Continue with C[C@@]1([C@@H](NC(=O)c2cccs2)c2ccc(-c3ccccc3)cc2)C[C@H]1C1CCCCC1
Reply | Not met

Ask | Continue with COC(=O)[C@@]1(Cc2ccccc2)[C@H]2c3cc(C(=O)N(C)C)n(Cc4ccc(O)c(OC)c4)c3C[C@H]2CN1C(=O)c1ccccc1
Reply | Met

Ask | Continue with COCCOC(=O)N1C(=O)[C@@]2(c3cc(C#CC4(O)CCCCCC4)ccc31)[C@H](C(=O)NC[C@H](O)c1ccccc1)[C@H]1C(=O)O[C@H](c3ccccc3)[C@H](c3ccccc3)N1[C@@H]2c1ccc(OCCO)cc1
Reply | Met
